Catalogue of IC50 readings, one per entry.
STUDY_SYSTEM: human TLR9 (Homo sapiens (Human))
Sequence (Q9NR96 26-1032): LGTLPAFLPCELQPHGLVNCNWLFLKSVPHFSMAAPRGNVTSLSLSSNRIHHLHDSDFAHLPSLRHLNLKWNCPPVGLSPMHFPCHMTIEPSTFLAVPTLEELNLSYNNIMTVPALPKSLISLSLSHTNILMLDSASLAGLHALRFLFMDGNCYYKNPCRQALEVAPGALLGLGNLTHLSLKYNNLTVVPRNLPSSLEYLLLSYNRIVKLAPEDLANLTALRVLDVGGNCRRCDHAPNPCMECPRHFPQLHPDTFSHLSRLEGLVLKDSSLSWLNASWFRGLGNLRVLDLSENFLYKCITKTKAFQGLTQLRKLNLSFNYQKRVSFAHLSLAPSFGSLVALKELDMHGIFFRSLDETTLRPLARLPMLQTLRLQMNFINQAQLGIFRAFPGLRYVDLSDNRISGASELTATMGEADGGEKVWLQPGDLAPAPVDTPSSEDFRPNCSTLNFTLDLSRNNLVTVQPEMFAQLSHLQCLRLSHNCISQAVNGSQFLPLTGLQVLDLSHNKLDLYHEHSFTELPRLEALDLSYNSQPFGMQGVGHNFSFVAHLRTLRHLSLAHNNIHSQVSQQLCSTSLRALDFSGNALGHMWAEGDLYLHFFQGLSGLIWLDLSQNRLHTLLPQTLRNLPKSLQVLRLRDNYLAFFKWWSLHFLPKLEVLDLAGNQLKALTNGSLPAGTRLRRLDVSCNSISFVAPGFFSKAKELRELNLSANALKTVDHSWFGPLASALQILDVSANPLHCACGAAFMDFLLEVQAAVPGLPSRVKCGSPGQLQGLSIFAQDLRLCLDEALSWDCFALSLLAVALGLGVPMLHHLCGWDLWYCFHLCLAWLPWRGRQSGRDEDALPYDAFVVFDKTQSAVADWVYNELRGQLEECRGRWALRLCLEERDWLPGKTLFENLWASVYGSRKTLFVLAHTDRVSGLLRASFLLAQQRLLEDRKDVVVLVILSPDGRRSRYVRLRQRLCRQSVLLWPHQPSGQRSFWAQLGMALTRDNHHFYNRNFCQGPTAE
RUN_DESCRIPTION: TLR9 inhibition reporter assay (HEK-Blue cells, SEAP reporter, ODN2006 stimulation);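 further: SEAP driven by IFN-β minimal promoter with five NF-κB and AP-1 sites, compounds 0.05 nM–50 µM in DMSO, 22 h, inhibition scaled between agonist plus DMSO and reference inhibitor wells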
MEASUREMENT_SETUP: read-out: TLR9 IC50; HEK-Blue cells, ODN2006 5 nM
Give just the numeric value; µM need not be written.

// known answers, use as guide
INSERT INTO measurements (chem_smiles, result_type, experimental_result) VALUES
  ('Cc1c(-c2[nH]c3ccc(N4CCN(C(=O)CN(C)C)[C@H](C)C4)nc3c2C(C)C)cn2ncnc2c1C', 'IC50', 8.12),
  ('Cc1c(-c2[nH]c3ccc(N4C[C@@H](C)N(CCCS(C)(=O)=O)C[C@@H]4C)nc3c2C(C)C)cn2ncnc2c1C', 'IC50', 22.6),
  ('Cc1c(-c2[nH]c3ccc(C4CC5(C4)CN(C(C)C)C5)nc3c2C(C)C)cn2ncnc2c1C', 'IC50', 6.94);

Now for the molecule whose IC50 we want.
Exercise: // fetch IC50 for "Cc1c(-c2[nH]c3ccc(C4CC5(C4)CN(C)C5)nc3c2C(C)C)cn2ncnc2c1C" ; system: human TLR9 (Homo sapiens (Human))
Solution: 3.65

----------
STUDY_SYSTEM: human TLR7 (Homo sapiens (Human), UniProt Q9NYK1)
Sequence (Q9NYK1 27-1049): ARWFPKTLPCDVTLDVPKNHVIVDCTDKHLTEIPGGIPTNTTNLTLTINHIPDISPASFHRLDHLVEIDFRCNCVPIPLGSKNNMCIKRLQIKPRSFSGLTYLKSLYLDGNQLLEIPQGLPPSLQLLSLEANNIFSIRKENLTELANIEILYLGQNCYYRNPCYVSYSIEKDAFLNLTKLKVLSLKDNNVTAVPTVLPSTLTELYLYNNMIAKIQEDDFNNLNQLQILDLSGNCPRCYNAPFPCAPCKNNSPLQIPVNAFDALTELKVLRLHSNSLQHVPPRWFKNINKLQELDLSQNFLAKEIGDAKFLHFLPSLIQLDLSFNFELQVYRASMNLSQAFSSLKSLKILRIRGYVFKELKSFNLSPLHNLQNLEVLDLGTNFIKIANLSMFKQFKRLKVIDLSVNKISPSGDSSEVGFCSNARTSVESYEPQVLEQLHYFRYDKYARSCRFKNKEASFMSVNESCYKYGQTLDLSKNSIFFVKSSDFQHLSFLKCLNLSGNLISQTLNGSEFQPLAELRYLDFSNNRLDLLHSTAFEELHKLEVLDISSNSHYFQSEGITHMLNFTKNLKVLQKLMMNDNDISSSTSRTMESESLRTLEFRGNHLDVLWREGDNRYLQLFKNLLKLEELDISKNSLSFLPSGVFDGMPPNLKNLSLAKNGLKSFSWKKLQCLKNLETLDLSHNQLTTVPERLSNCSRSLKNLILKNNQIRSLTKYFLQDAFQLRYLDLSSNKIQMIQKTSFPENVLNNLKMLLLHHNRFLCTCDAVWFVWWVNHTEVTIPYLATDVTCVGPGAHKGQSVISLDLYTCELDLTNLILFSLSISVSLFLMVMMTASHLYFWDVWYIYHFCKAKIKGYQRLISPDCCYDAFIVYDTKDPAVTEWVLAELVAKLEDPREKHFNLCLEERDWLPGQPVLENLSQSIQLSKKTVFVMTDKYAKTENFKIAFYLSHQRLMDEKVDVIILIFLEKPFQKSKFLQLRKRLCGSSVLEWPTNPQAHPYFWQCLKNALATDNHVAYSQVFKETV
RUN_DESCRIPTION: TLR7 inhibition reporter assay (HEK-Blue cells, SEAP reporter, gardiquimod stimulation)
Format: cell-based
MEASUREMENT_SETUP: HEK-Blue cells overexpressing human TLR7, SEAP reporter, gardiquimod 7.5 μM
Parameter log10(IC50): see the listing below.
All values: base-10 log of IC50 in nM.

INSERT INTO assay_data (compound, experimental_result) VALUES
  ('Cc1c(-c2[nH]c3ccc(N4C[C@H]5C[C@@H]4CN5CCCS(C)(=O)=O)nc3c2C(C)C)cn2ncnc2c1C', 0.75);

Exercise: Entry "Cc1c(-c2[nH]c3ccc(N4C[C@@H]5C[C@H]4CN5C4CCS(=O)(=O)CC4)nc3c2C(C)C)cn2ncnc2c1C" needs its log10(IC50) filled in; supply it.
Solution: 1.04

Exercise: Dear colleague, please send me the reported log10(IC50) for "Cc1c(-c2[nH]c3ccc(N4C[C@H]5CCC[C@@H](C4)N5CCS(C)(=O)=O)nc3c2C(C)C)cn2ncnc2c1C" when you can.
Solution: 1.11

Exercise: Give me measured log10(IC50), please, for this compound: "Cc1c(-c2[nH]c3ccc(N4C[C@@H]5C[C@H]4CN5C4CCOCC4)nc3c2C(C)C)cn2ncnc2c1C"
Solution: 0.28

Exercise: Return reported log10(IC50). Input compound: "Cc1c(-c2[nH]c3ccc(N4C[C@H]5C[C@@H]4CN5CC#N)nc3c2C(C)C)cn2ncnc2c1C"
Solution: -0.07

Exercise: Provide measured log10(IC50) value, entry: "Cc1c(-c2[nH]c3ccc(N4C[C@@H]5C[C@H]4CN5C(=O)CN(C)C)nc3c2C(C)C)cn2ncnc2c1C"
Solution: 0.46

Exercise: Report log10(IC50) for "Cc1c(-c2[nH]c3ccc(N4C[C@@H]5C[C@H]4CN5CCCS(C)(=O)=O)nc3c2C(C)C)cn2ncnc2c1C"
Solution: 0.43

Exercise: Annotate the compound "Cc1c(-c2[nH]c3ccc(N4C[C@@H]5C[C@H]4CN5C(C)C)nc3c2C(C)C)cn2ncnc2c1C" with its measured log10(IC50).
Solution: 0.26

Exercise: Hello, please tell me recorded log10(IC50) for this one: "Cc1c(-c2[nH]c3ccc(N4C[C@@H]5C[C@H]4CN5CC(N)=O)nc3c2C(C)C)cn2ncnc2c1C"
Solution: 0.57

Exercise: Determine from records and report log10(IC50) for CC(C)c1c(-c2cn(CCS(C)(=O)=O)c3ncccc23)[nH]c2ccc(C3CCC(NC4CCOCC4)CC3)nc12 (centres unmarked)
Solution: 2.08

Exercise: Please give the documented log10(IC50) of "Cc1c(-c2[nH]c3ccc(N4[C@@H]5CC[C@H]4CN(CCC(N)=O)C5)nc3c2C(C)C)cn2ncnc2c1C"
Solution: 0.46

Exercise: Identify measured log10(IC50) associated with "Cc1c(-c2[nH]c3ccc(N4C[C@H]5C[C@@H]4CN5CC(N)=O)nc3c2C(C)C)cn2ncnc2c1C"
Solution: 0.58

Exercise: Consider the compound "Cc1cc(-c2[nH]c3ccc(C4CCN(CC(N)=O)CC4)nc3c2C(C)C)cn2ncnc12" . State its measured log10(IC50).
Solution: -0.14

Exercise: Using the record for "Cc1c(-c2[nH]c3ccc(N4C[C@@H]5C[C@H]4CN5Cc4cn(C)nn4)nc3c2C(C)C)cn2ncnc2c1C" , state its measured log10(IC50).
Solution: 0.97
